Taken from patent CN101123983A.

target: T1, 人EphA4-His融合蛋白 (human EphA4 extracellular domain fused to a histidine tag) (human, UniProt P54764 20-547); experiment: secondary screen of combination variant Fabs: activity ELISA on coated human EphA4-His, normalised by Fab quantitation ELISA
T1 construct: also called rhuEphA4-His; not shown: histidine tag
T1 sequence (P54764 20-547): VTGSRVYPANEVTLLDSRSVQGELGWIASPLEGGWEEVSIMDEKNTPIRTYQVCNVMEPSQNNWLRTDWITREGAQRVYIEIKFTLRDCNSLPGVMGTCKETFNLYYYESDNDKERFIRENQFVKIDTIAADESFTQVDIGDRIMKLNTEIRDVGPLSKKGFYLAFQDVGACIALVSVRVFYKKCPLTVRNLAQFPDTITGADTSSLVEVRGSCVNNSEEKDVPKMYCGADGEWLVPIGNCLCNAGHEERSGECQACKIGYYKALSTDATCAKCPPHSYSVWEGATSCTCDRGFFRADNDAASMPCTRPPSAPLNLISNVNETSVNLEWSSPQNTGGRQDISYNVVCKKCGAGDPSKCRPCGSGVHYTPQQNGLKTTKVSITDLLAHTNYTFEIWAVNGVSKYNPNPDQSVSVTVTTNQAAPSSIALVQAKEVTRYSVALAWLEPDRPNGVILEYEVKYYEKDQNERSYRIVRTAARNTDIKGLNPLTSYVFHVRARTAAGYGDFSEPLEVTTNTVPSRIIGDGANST
Readout Label: binding result

3A12 (Fab, V domains shown) VH: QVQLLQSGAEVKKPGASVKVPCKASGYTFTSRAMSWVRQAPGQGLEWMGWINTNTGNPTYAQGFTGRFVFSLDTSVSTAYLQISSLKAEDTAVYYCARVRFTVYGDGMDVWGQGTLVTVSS VL: EIVLTQSPATLSVSPGERATLSCRASQSVSSNLAWYQQKPGQAPRLLIYGASTWATGIPDRFSASGSGTDFTLTISRVEPEDFAVYYCQQYGPSWTFGQGTKVEIK | binds
